The reported numbers originate from the DeepSol protein solubility set.

assay: soluble on expression in E. coli; label from the status in PepcDB or PDB records
attribute.measured: soluble on expression in E. coli

MATRNEEILRKPDWLKIKLNTNDNYTGLKKMMREKNLHTVCEEAKCPNIHECWGARRTATFMILGAVCTRACRFCAVKTGLPNELDLNEPERVAESVELMNLKHVVITAVARDDLRDQGSNVYAETVRKVRERNPFTTIEILPSDMGGDYEALETLMASRPDILNHNIETVRRLTPRVRARATYDRTLQFLRRSKELQPDIPTKSSLMVGLGETMEEIYETMDDLRANDVDILTIGQYLQPSRKHLKVEKYYTPLEFGKMRKIAMEKGFKHCQAGPLVRSSYHADEQVNEAAKEKQRQGEEQLN: not soluble
MGSDKIHHHHHHMREENYEEAAKAFNAAIEANPSDPIGFVNFGNLLGMVGELDKALIFFDKAIGLQEDCAPAYYGAGTIYYKQEKFEDGAKMFKQAIAHKLNETDVYFMLGMCYYQLGALPHAQANFQRALELDSNDVEARFQLGLCLAQLEQVDEAIKHLQLVVEHVPNHADAHFNLGVAYAYKDRLEEALAHFERAIHIQPEHILAHNGKKTVEEVLNKGANEA: not soluble
VTDDLEPTAPAAAAPEPEVKGIDLARRALEEARAAAKASGKSVGQGRRSGTGVRALRARRRRGWSGPGPDDRDPQPFGALTNAIAKQRGWSPKVSEGTVLGRWVQVVGEDIAAHAEPTGLRDGILSVSAESTAWATQLRMMQSQILAKIAAAVGDGVVKSLRITGPTAPSWRKGERHIRGRGPRDTYG: not soluble
